- SUBJECT_OF_TEST: F508del/F508del CFTR (Homo sapiens, UniProt P13569, DEL508-508)
- Construct: cells isolated from CF patients with the homozygous mutation; endogenous in cells
- RUN_DESCRIPTION: Trans-Epithelial Current Clamp (TECC) assay using primary human bronchial epithelial cells
- CONDITIONS_USED: primary hBE cells homozygous F508del/F508del; test C2 corrector with co-corrector and potentiator, 18-24 hours at 37° C.; equivalent CFTR current (IEQ)/AUC
MEASUREMENT_NAME: EC50 (nM)
Quick note: give the figure in nM, leave out the unit.

Below: 5 molecules and their reported EC50.
COc1ncc([C@@H]2C[C@]2(C(=O)NS(=O)(=O)c2cccc3nc(C)ccc23)c2cc(C)ccc2OC)cn1 (single isomer, unassigned) [Example 37] = 42
COc1cccc([C@@H]2C[C@]2(C(=O)NS(=O)(=O)c2cccc3nc(C)ccc23)c2cc(C)ccc2OC)n1 = 16.6
COc1ccc(C)cc1[C@@]1(C(=O)NS(=O)(=O)c2cccc3nc(C)ccc23)C[C@H]1c1ccccn1 = 57.7
COc1nccc([C@H]2C[C@@]2(C(=O)NS(=O)(=O)c2cccc3nc(C)ccc23)c2cc(C)ccc2OC)n1 (single isomer, unassigned) = 21
CCOc1cnc([C@H]2C[C@@]2(C(=O)NS(=O)(=O)c2cccc3nc(C)ccc23)c2cc(C)ccc2OC)cn1 (single isomer, unassigned) = 15.2

In the following, a different molecule is considered.
Request: Identify measured EC50 associated with COc1ccc([C@@H]2C[C@]2(C(=O)NS(=O)(=O)c2cccc3nc(C)ccc23)c2cc(C)ccc2OC)cc1 (single isomer, unassigned) [Example 17]
Response: 0.66

###

- SUBJECT_OF_TEST: F508delCFTR (Homo sapiens, UniProt P13569, DEL508-508)
- Construct: expressed in transfected cells; host or cells: CFBE41o- human lung-derived epithelial cell line, doxycycline-inducible expression
- Sequence (P13569 with tags, fused parts or gaps DEL508-508): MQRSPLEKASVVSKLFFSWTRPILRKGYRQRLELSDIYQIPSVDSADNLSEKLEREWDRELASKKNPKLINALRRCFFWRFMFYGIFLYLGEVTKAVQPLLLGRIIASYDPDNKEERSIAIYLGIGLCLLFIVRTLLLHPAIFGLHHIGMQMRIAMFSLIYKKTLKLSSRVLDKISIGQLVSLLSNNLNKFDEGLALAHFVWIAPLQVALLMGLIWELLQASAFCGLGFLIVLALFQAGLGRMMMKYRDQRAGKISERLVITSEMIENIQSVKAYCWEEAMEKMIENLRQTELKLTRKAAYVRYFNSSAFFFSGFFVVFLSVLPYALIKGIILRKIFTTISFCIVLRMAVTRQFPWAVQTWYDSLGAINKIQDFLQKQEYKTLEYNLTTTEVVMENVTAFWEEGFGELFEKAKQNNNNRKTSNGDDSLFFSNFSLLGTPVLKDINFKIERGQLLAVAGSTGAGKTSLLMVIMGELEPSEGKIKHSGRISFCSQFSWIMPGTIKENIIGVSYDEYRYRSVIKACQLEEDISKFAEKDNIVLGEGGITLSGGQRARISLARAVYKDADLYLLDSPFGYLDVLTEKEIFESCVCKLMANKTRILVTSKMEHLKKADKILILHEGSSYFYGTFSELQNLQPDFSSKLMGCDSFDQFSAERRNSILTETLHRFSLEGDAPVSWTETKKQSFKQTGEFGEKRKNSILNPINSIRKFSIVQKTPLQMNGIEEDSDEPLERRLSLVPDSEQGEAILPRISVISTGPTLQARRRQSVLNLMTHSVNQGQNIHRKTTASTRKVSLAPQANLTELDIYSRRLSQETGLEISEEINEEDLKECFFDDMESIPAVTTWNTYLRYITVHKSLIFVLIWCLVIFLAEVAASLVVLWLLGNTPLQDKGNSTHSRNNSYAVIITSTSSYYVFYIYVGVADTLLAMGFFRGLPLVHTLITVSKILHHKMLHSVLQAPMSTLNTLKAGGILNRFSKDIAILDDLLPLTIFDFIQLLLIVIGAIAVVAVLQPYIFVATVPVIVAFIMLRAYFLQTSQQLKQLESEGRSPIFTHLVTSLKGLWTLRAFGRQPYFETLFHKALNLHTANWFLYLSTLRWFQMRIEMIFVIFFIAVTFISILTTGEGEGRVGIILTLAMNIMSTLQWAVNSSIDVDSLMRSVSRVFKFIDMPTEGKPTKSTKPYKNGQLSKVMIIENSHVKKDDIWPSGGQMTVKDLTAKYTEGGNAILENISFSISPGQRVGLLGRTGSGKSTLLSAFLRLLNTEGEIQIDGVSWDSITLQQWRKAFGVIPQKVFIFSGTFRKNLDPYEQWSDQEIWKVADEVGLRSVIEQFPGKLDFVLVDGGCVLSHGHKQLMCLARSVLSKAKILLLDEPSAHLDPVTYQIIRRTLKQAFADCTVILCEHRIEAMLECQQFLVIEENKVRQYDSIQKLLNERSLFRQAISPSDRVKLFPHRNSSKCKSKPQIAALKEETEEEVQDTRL
- RUN_DESCRIPTION: Cell Surface Expression-Horse Radish Peroxidase (CSE-HRP) assay in CFBE41o-F508delCFTR-HRP cells
- Assay type: cell-based
- CONDITIONS_USED: with co-corrector (2 μM); normalized to on-plate positive control corrector (2 μM)
Reported Maximum % activity (with co-corrector) is given for each of the following molecules.
# output: numeric value plus its unit

COc1ccc(C)cc1[C@]1(C(=O)NS(=O)(=O)c2cccc3nc(C)ccc23)C[C@@H]1c1ccc(C(C)C)nc1 = 989%

Request: Look up and report Maximum % activity (with co-corrector), with F508delCFTR (Homo sapiens, UniProt P13569, DEL508-508) as system, for COc1cccc([C@@H]2C[C@]2(C(=O)NS(=O)(=O)c2cccc3nc(C)ccc23)c2cc(C)ccc2OC)n1
Response: 982%

Request: Look up and report Maximum % activity (with co-corrector), with F508delCFTR (Homo sapiens, UniProt P13569, DEL508-508) as system, for COc1ccc([C@@H]2C[C@]2(C(=O)NS(=O)(=O)c2cccc3nc(C)ccc23)c2cc(C)ccc2OC)c(OC)n1 (racemic)
Response: 860%

Request: Look up and report Maximum % activity (with co-corrector), with F508delCFTR (Homo sapiens, UniProt P13569, DEL508-508) as system, for COc1ccc(C)cc1[C@]1(C(=O)NS(=O)(=O)c2cccc3nc(C)ccc23)C[C@@H]1c1ccc(C(C)C)nn1
Response: 495%

Request: Look up and report Maximum % activity (with co-corrector), with F508delCFTR (Homo sapiens, UniProt P13569, DEL508-508) as system, for COc1ncc([C@@H]2C[C@]2(C(=O)NS(=O)(=O)c2cccc3nc(C)ccc23)c2cc(C)ccc2OC)cn1 (single isomer, unassigned) [Example 37]
Response: 460%

Request: Look up and report Maximum % activity (with co-corrector), with F508delCFTR (Homo sapiens, UniProt P13569, DEL508-508) as system, for COc1cncc([C@@H]2C[C@]2(C(=O)NS(=O)(=O)c2cccc3nc(C)ccc23)c2cc(C)ccc2OC)c1 (single isomer, unassigned)
Response: 406%
